B1: glmS ribozyme (parent)
chain: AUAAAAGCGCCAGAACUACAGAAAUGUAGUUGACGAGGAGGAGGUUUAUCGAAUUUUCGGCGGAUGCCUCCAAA

variants of: B1; assay: self-cleavage kobs at 640 uM GlcN6P; higher = faster cleavage; RNA array; settings: with glucosamine-6-phosphate
Fewer inactive variants are shown than the library holds.
metric_name: self-cleavage kobs at 640 uM GlcN6P

- mutant_name: "G38A A39C G40U G43A U49G U54C"
  self-cleavage kobs at 640 uM GlcN6P: "< 1e-05 s⁻¹"
- mutant_name: "G37A A48U U54C"
  self-cleavage kobs at 640 uM GlcN6P: "< 1e-05 s⁻¹"
- mutant_name: "C16G G51U G60C"
  self-cleavage kobs at 640 uM GlcN6P: "< 1e-05 s⁻¹"
- mutant_name: "G7C A14U C16G U30A U56A C67G"
  self-cleavage kobs at 640 uM GlcN6P: "< 1e-05 s⁻¹"
- mutant_name: "A14U G40A U56G U57C"
  self-cleavage kobs at 640 uM GlcN6P: "< 1e-05 s⁻¹"
- mutant_name: "C8U A33C G40C G62A C70U"
  self-cleavage kobs at 640 uM GlcN6P: "< 1e-05 s⁻¹"
- mutant_name: "C8G A15G C16U U45G U49A"
  self-cleavage kobs at 640 uM GlcN6P: "< 1e-05 s⁻¹"
- mutant_name: "A12G C16A A52U U57G"
  self-cleavage kobs at 640 uM GlcN6P: "< 1e-05 s⁻¹"

Entry under test: A6G G62U . Its self-cleavage kobs at 640 uM GlcN6P was < 1e-05 s⁻¹

Short answer for G40A A64G : self-cleavage kobs at 640 uM GlcN6P was 0.000538 s⁻¹

Noted for C8A A48G A53U : its self-cleavage kobs at 640 uM GlcN6P reads < 1e-05 s⁻¹

Reference for the values: the supplement of paper PMC7125110
